# Tested on: SARS-CoV-2
# METHOD NOTES: microbe, parasite or virus in culture
# Format: cell-based
# PROTOCOL CONDITIONS: Severe acute respiratory syndrome coronavirus 2, Calu-3, 72 h; read-out: IC50, % inhibition of viral replication (FIG. 5-c)
MEASURED ATTRIBUTE: IC50 (nM)
Write down the numeric answer in nM and omit the unit.

API: value(readout= IC50, system= SARS-CoV-2, query= COC1=C(OC)C(=O)C(CCCCCCCCCC[P+](c2ccccc2)(c2ccccc2)c2ccccc2)=C(C)C1=O.CS(=O)(=O)[O-] [Mito-MES, methanesulfonate] ) 30
